meta.source: PubChem BioAssay

Listed compounds paired with reported viability
test: viability of PTEN-null HCT116 cells – cell-based, HCT116 clonal line, CellTiter-Glo, pilot screen (AID 824); conditions: HCT116 PTEN-deleted viability, 60 h, at 10 µM, hits give low values;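 further: 0% = 20 µM Hyamine control and 100% = vehicle cell control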
Results filed as inconclusive are left out.
Write down the numeric answer in % and omit the unit.

For orientation, consider the following solved cases.
[
  {
    "Compound": "Cc1cc(NC(=O)c2noc3c2CCc2ccccc2-3)n(-c2ccccc2)n1",
    "Scale Unit": "%",
    "Experimental Value": 98.3
  },
  {
    "Compound": "CCn1c(C(C)NC(=O)c2cccc(C)c2)nc2ccccc21 (centres undefined)",
    "Scale Unit": "%",
    "Experimental Value": 95.6
  },
  {
    "Compound": "COC(=O)c1ccc(CSc2ccc3nnc(-c4cccc(F)c4)n3n2)o1",
    "Scale Unit": "%",
    "Experimental Value": 91.4
  },
  {
    "Compound": "C(#Cc1ccccc1)CN1CCN(c2ccccn2)CC1",
    "Scale Unit": "%",
    "Experimental Value": 91.9
  },
  {
    "Compound": "CCCCOc1ccccc1C1NC(=O)NC(C)=C1C(=O)OCCOC (centres undefined)",
    "Scale Unit": "%",
    "Experimental Value": 88.1
  },
  {
    "Compound": "CCN(CC)S(=O)(=O)c1cc(-c2nnc(-c3ccc(Br)cc3)o2)ccc1Cl",
    "Scale Unit": "%",
    "Experimental Value": 41.7
  },
  {
    "Compound": "CCOC(=O)C1CCCN(C(=O)CCCn2nc(C)n3c(cc4sccc43)c2=O)C1 (centres undefined)",
    "Scale Unit": "%",
    "Experimental Value": 94.3
  },
  {
    "Compound": "COc1ccccc1N1CCN(C(=O)c2cc3c(-c4ccc(Cl)cc4)nn(C)c3s2)CC1",
    "Scale Unit": "%",
    "Experimental Value": 47.9
  },
  {
    "Compound": "Cn1c(-n2c(CCCN3C(=O)c4ccccc4C3=O)nc3ccccc3c2=O)nc2ccccc21",
    "Scale Unit": "%",
    "Experimental Value": 87.2
  },
  {
    "Compound": "O=C(NCc1ccc2c(c1)OCO2)c1nnc(Cc2ccc(F)cc2)o1",
    "Scale Unit": "%",
    "Experimental Value": 97.1
  }
]

IN: Look up viability: COc1ccc2cc(CCNC(=O)c3ccc(Br)o3)c(=O)[nH]c2c1
OUT: 90.3

IN: Look up viability: COc1ccc(-c2n[nH]c(C)c2-c2cnn(-c3ccccc3)c2)c(O)c1
OUT: 92.2

IN: Look up viability: Cc1c(S(=O)(=O)N2CCc3ccccc3C2)c(=O)n(C)c(=O)n1C
OUT: 97.9

IN: Look up viability: O=C(CCS(=O)(=O)c1cccc2nonc12)N1CC(=O)N(CCc2ccccc2)C(=O)C1
OUT: 92.3

----------
test: MRP1 drug-resistance reversers in H69AR cells – cell-based, doxorubicin co-treatment, pilot screen (AID 601); settings: H69AR cells + 2 uM doxorubicin, CellTiter-Glo, 72 h; at 10 µM; hits give high values
Listed compounds paired with reported differential viability (reversal)
Write down the numeric answer in % and omit the unit.

IN: Look up differential viability (reversal): Cc1cc(C)n(-c2nc(C)nc3c2cnn3-c2ccccc2)n1
OUT: -1.5

IN: Look up differential viability (reversal): C=C(C)CSc1nnc2[nH]c(=O)cc(N)n12
OUT: 13.4

IN: Look up differential viability (reversal): Cc1nc2ccccc2c(=O)n1NC(=O)c1ccc(F)cc1Cl
OUT: -4.19

IN: Look up differential viability (reversal): CC(C)Cn1c(N)c(C(=O)NCCN2CCOCC2)c2nc3ccccc3nc21
OUT: -23.6

IN: Look up differential viability (reversal): O=C(CN1C(=O)COc2ccccc21)NCCCN1CCN(Cc2ccccc2)CC1
OUT: 2.35

IN: Look up differential viability (reversal): O=C(CCC(=O)N1CCN(S(=O)(=O)c2ccccc2)CC1)c1cccs1
OUT: 4.42

----------
test: HUVEC growth inhibition – cell-based, human, primary screen (AID 575); conditions: HUVEC proliferation, CellTiter-Glo luminescence, 72 h; at 10 µM;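 further: 100% = median of untreated cell wells with 0.1% DMSO on each plate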
Active and inactive are the calls of the source.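 Rule for the calls: active = viability at or below 30% in both replicate assays; inconclusive = viability at or below 30% in just one of the two assays; inactive = the rest.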
API: response.call in Yes for active, No for inactive

Example entries and their recorded answers appear below.
[
  {
    "Compound": "Cc1csc(NC(=O)c2cccc(S(=O)(=O)N3CCCCC3)c2)n1",
    "Label": "No"
  },
  {
    "Compound": "COc1ccccc1-c1ccc(Nc2cccc(C(C)=O)c2)nn1",
    "Label": "No"
  },
  {
    "Compound": "CC(=O)Nc1ccc(NC2=CC(=O)CC(C)(C)C2)cc1",
    "Label": "No"
  },
  {
    "Compound": "CCCN(CCC)CCNS(=O)(=O)c1ccc2c(c1)oc(=O)n2C",
    "Label": "No"
  },
  {
    "Compound": "O=C(NCCN1CCCC1)C1COc2ccccc2O1 (stereo not drawn)",
    "Label": "No"
  },
  {
    "Compound": "CC(C)(C)n1nnnc1CN(Cc1ccco1)Cc1cc2cc3c(cc2[nH]c1=O)OCO3",
    "Label": "No"
  },
  {
    "Compound": "CCCn1c(SCC(=O)NCc2ccco2)nc2c1c(=O)n(C)c(=O)n2C",
    "Label": "No"
  },
  {
    "Compound": "CCOc1ccc(OCC)c(NS(=O)(=O)c2ccc3c(c2)n(C)c(=O)c(=O)n3C)c1",
    "Label": "No"
  },
  {
    "Compound": "CCCCCCCCNC(C)C(O)c1ccc(SC(C)C)cc1 (stereo not drawn)",
    "Label": "Yes"
  },
  {
    "Compound": "CCc1nnc(NC(=O)CCC(=O)Nc2ccccc2)s1",
    "Label": "No"
  }
]

IN: Given COC(=O)Cn1c2ccccc2c2nc(C)sc21 , state the outcome it received in this test.
OUT: No

IN: Given O=C1CC(C(=O)Nc2ccccc2)C2(CCCC2)O1 (stereo not drawn) , state the outcome it received in this test.
OUT: No

IN: Given CN1CCN(S(=O)(=O)c2ccc(NC(=O)c3ccc(F)cc3)cc2)CC1 , state the outcome it received in this test.
OUT: No

IN: Given CC(=O)N1CCN(S(=O)(=O)c2ccc(S(=O)(=O)NCC(C)C)cc2)CC1 , state the outcome it received in this test.
OUT: No

IN: Given O=S1(=O)C=C(Sc2nnc(-c3ccccc3)o2)c2ccccc21 , state the outcome it received in this test.
OUT: No

IN: Given COc1ccc(C2C(C(C)=O)=C(C)N=c3s/c(=C\c4ccc5c(c4)OCO5)c(=O)n32)c(OC)c1 (stereo not drawn) , state the outcome it received in this test.
OUT: No

IN: Given COc1ccc(CCNS(=O)(=O)c2ccc3c(c2)OCCO3)cc1 , state the outcome it received in this test.
OUT: No

IN: Given CCCCCCNC(=O)c1c(N)n(/N=C/c2ccco2)c2nc3ccccc3nc12 , state the outcome it received in this test.
OUT: No

IN: Given CN(C)c1ccc(/C=C/C(O)=C2/C(=O)N(C)C3(C)CC2c2ccccc2O3)cc1 (stereo not drawn) , state the outcome it received in this test.
OUT: No

IN: Given COc1ccc(OC(C)C(=O)N2CCN(c3ccccn3)CC2)cc1 (stereo not drawn) , state the outcome it received in this test.
OUT: No

IN: Given COc1ccc(-c2coc3c(CN4CCCCC4)c(O)c(CN4CCCCC4)c(O)c3c2=O)cc1 , state the outcome it received in this test.
OUT: No

----------
test: MRP1 drug-resistance reversers in H69AR cells – cell-based, doxorubicin co-treatment, pilot screen (AID 601); conditions: H69AR cells + 2 uM doxorubicin, CellTiter-Glo, 72 h; at 10 µM; hits give high values
Test Readout: differential viability (reversal) (%)
Write down the numeric answer in % and omit the unit.

IN: Look up differential viability (reversal): CCOC(=O)c1cc2oc(C)cc2n1CC(=O)OC1CCCCC1
OUT: 0.485

IN: Look up differential viability (reversal): COc1cccc(-n2c(SCC(=O)OC(C)C)nnc2-c2cccnc2)c1
OUT: 4.17

IN: Look up differential viability (reversal): Nc1nc(Nc2ccc(Cl)cc2Cl)nc(C(F)(F)F)n1
OUT: 11.7

IN: Look up differential viability (reversal): CCOC(=O)Cc1nnc(NC(=O)c2ncn[nH]2)s1
OUT: -2.02

IN: Look up differential viability (reversal): COc1ccc(CCNc2oc(Cc3cccc4ccccc34)nc2C#N)cc1OC
OUT: -7.3

IN: Look up differential viability (reversal): CN(C(=O)c1c(Cl)nc2sccn12)C1CCCCC1
OUT: 16.4
